Cited source: the supplement of paper PMC11061612

test system: L-363 (Plasma Cell Myeloma); experiment: combination Emax (second highest fraction inhibited in the dose matrix, 72 h); higher = more inhibition; extreme values may be limits of the assay
Recorded combination Emax for the following compounds
When you answer, write just the number.

A selection of reference data follows.
COc1cccc(OCCCN)c1-c1cc(Nc2cnc(C#N)cn2)n[nH]1 [Prexasertib] + C=CCn1c(=O)c2cnc(Nc3ccc(N4CCN(C)CC4)cc3)nc2n1-c1cccc(C(C)(C)O)n1 [AZD1775] (first compound max 1 µM, partner max 1 µM)    1
CC(=O)Nc1cccc(-n2c(=O)n(C3CC3)c(=O)c3c(Nc4ccc(I)cc4F)n(C)c(=O)c(C)c32)c1 [Trametinib] + Cc1nc(-c2cn3c(n2)-c2ccc(-c4cnn(C(C)(C)C(N)=O)c4)cc2OCC3)n(C(C)C)n1 [Taselisib] (first compound max 1 µM, 7x7, partner max 10 µM)    0.635

Here's the next entry for you.
Give its combination Emax value. Item: CC1(C)CCC(CN2CCN(c3ccc(C(=O)NS(=O)(=O)c4ccc(NCC5CCOCC5)c([N+](=O)[O-])c4)c(Oc4cnc5[nH]ccc5c4)c3)CC2)=C(c2ccc(Cl)cc2)C1 [Venetoclax] + C[C@@H](Nc1cc(F)cc(F)c1)c1cc(C(=O)N(C)C)cc2c(=O)cc(N3CCOCC3)oc12 [AZD8186] (first compound max 1 µM, 7x7, partner max 3 µM) 0.805
